Biological target: T1, recombinant human Vascular Endothelial Growth Factor a (Homo sapiens, UniProt P15692-4, fluorescently labeled with Alexa-647)
T1 construct: human VEGFa, UniProt ID P15692, aa 27-191 as printed; the isoform is my reading of the limits 27-191; also called rhVEGFa; recombinant human VEGFa; source: recombinant
T1 sequence (P15692 other isoform, or with tags, fused parts or gaps): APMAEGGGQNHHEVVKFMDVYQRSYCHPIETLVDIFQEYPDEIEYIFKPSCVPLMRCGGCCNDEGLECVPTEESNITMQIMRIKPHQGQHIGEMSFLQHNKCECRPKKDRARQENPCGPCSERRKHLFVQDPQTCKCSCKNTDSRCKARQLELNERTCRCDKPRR
Test: MST; Alexa-647-labelled rhVEGFa constant at 1 nM in solution, mAb2 WT or variants in varying concentrations; 295 K; 25 mM sodium citrate pH 6.0, 125 mM NaCl, 0.05% Tween 20; triplicates; NanoTemper Monolith NT.115
Conditions: both partners purified

binder: mAb2_SL52R_FH101P (antibody, V domains shown, as the heavy chain variable region of m1 (PDB 2FJF), with the stated change; constant regions of an IgG1 isotype, already in the expression vector; as the light chain variable region of m1 (PDB 2FJF), with the stated change; light chain constant region from the expression vector; IgG1; also called mAb2 FH101P SL52R; source: CHO K1, transiently transfected, purified (protein A)) VH: EVQLVESGGGLVQPGGSLRLSCAASGFTISDYWIHWVRQAPGKGLEWVAGITPAGGYTYYADSVKGRFTISADTSKNTAYLQMNSLRAEDTAVYYCARFVPFLPYAMDYWGQGTLVTVSS VL: DIQMTQSPSSLSASVGDRVTITCRASQDVSTAVAWYQQKPGKAPKLLIYSARFLYSGVPSRFSGSGSGTDFTLTISSLQPEDFATYYCQQSYTTPPTFGQGTKVEIK
binding result: no binding
//
binder: mAb2_SL50K_SH21R_SH85R_FH101P (antibody, V domains shown, as the heavy chain variable region of m1 (PDB 2FJF), with the stated changes; constant regions of an IgG1 isotype, already in the expression vector; as the light chain variable region of m1 (PDB 2FJF), with the stated change; light chain constant region from the expression vector; IgG1; also called mAb2 FH101P SL50K SH21R SH85R; source: CHO K1, transiently transfected, purified (protein A)) VH: EVQLVESGGGLVQPGGSLRLRCAASGFTISDYWIHWVRQAPGKGLEWVAGITPAGGYTYYADSVKGRFTISADTSKNTAYLQMNRLRAEDTAVYYCARFVPFLPYAMDYWGQGTLVTVSS VL: DIQMTQSPSSLSASVGDRVTITCRASQDVSTAVAWYQQKPGKAPKLLIYKASFLYSGVPSRFSGSGSGTDFTLTISSLQPEDFATYYCQQSYTTPPTFGQGTKVEIK
binding result: no binding
//
binder: mAb2_VH100R (antibody, V domains shown, as the heavy chain variable region of m1 (PDB 2FJF), with the stated change; constant regions of an IgG1 isotype, already in the expression vector; as the light chain variable region of m1 (PDB 2FJF); light chain constant region from the expression vector; IgG1; source: CHO K1, transiently transfected, purified (protein A)) VH: EVQLVESGGGLVQPGGSLRLSCAASGFTISDYWIHWVRQAPGKGLEWVAGITPAGGYTYYADSVKGRFTISADTSKNTAYLQMNSLRAEDTAVYYCARFRFFLPYAMDYWGQGTLVTVSS VL: DIQMTQSPSSLSASVGDRVTITCRASQDVSTAVAWYQQKPGKAPKLLIYSASFLYSGVPSRFSGSGSGTDFTLTISSLQPEDFATYYCQQSYTTPPTFGQGTKVEIK
binding result: no binding

// provenance: paper PMC5397608
